Tested on: RXF 393 renal
TEST METHOD NOTES: NCI-60 one-dose screen, 48 h
EXPERIMENTAL PARAMETERS: 10 µM unless noted
About 83,000 compounds went through this panel and 20% of them were active in at least one assay; those are over-represented in the sample as a whole. Active and inactive are the calls of the source. Rule for the calls: active = growth percent below 10; inactive = the rest.
Respond with a class label; see true (active), false (inactive)

COC1=CC(c2ccc[nH]2)=N/C1=C\c1[nH]c(C)c(C(=O)CCCCC(=O)NC(C)(C)C)c1C ... true
COc1ccc2c(c1)cn1c3ccc(O)cc3[nH]c(=O)c21 ... true
Oc1ccc(N=Nc2ccc(N=Nc3ccccc3)cc2)cc1 ... false
CC(=O)Nc1nc(C)c(C(=O)N/N=C/c2cccs2)s1 ... false
O=C1C(Br)=CC2C1C1C3CCC3C2(Br)C12OCCO2 (stereo unspecified) ... false

# input for lookup
Write down the call the test reported for this compound. Item: COc1ccc(OC)c(Cn2cc3c(c2)-c2oncc2CC3)c1
false
